- Test system: SKBR-3 cells
- assay-overview: WST-8 growth inhibition of cultured breast cancer cells
- Format: cell-based, human
- Method: In another example, the expression of thymidylate synthase (TS) was correlated with the response of breast cancer cells to the chemotherapeutic drug 5-fluorouracil (5-FU). TS is a key enzyme in DNA biosynthesis and has been postulated to play a major role in predicting the response to 5-FU based chemotherapy. Experiments were conducted to examine this relationship. […] Doses ranged from 5-300 μg/ml.
observed-property: biological response to drug treatment (in words)

compound	value-measured
CC(=O)O[C@H]1C(=O)[C@@]2(C)[C@H]([C@H](OC(=O)c3ccccc3)[C@]3(O)C[C@H](OC(=O)[C@H](O)[C@@H](NC(=O)c4ccccc4)c4ccccc4)C(C)=C1C3(C)C)[C@]1(OC(C)=O)CO[C@@H]1C[C@@H]2O [Paclitaxel, paclitaxel]	sensitive
CC(=O)O[C@@]12CO[C@@H]1C[C@H](O)[C@@]1(C)C(=O)[C@H](O)C3=C(C)[C@@H](OC(=O)[C@H](O)[C@@H](NC(=O)OC(C)(C)C)c4ccccc4)C[C@@](O)([C@@H](OC(=O)c4ccccc4)[C@H]21)C3(C)C [Docetaxel, docetaxel]	sensitive
